Can you tell me CC50 at 24 h for the items I'm about to list?
# Experiment Notes: Cytotoxicity assay (MTT) in uninfected A549 cells
# Type: cell-based
# Experimental Setup: human, means ± SEM of triplicate samples
Numbers only, in µM.

A selection of reference data follows.
Please fill in: CC50 at 24 h reported for CC(=O)O[C@@H]1C[C@@]2(C)C(=O)C([C@H]3CC(=O)C(C)=C[C@H]3O)=CCC2[C@@]2(C)CCCC(C)(C)C12 (stereo partly drawn) = 40.7

CC50 at 24 h reported for this compound CC(=O)OC1CC2(C)C(CCC3(C4CC(=O)C(C)=CC4O)OC23)C2(C)CCCC(C)(C)C12 (stereo not drawn) : 87.3

Field CC50 at 24 h (entry CC(=O)OC1CC2(C)C=C(C3CC(=O)C(C)=CC3O)CCC2C2(C)CCCC(C)(C)C12 (stereo not drawn) ) reads 33.3

// sample COC1C(C)C(=O)CC(C2(O)CCC3C(C)(CC(OC(C)=O)C4C(C)(C)CCCC43C)C2)C1O (stereo not drawn) , its CC50 at 24 h was 51.1

Query CC(=O)OC1CC2(C)C(O)C(C3CC(=O)C(C)=CC3O)=CCC2C2(C)CCCC(C)(C)C12 (stereo not drawn) yields CC50 at 24 h of 36

---
CC50 at 24 h reported for this compound CC(=O)OC1CC2(C)CC(O)(C3CC(=O)C(C)=CC3O)CCC2C2(C)CCCC(C)(C)C12 (stereo not drawn) : 67.6
